The following compounds have recorded pIC50 on Serine/threonine-protein kinase mTOR (Homo sapiens).
pIC50: −log10 of the molar value.
experimental_readout: pIC50

Sample answers from the record:
compound	readout_number
CC(COc1no[n+]([O-])c1S(=O)(=O)c1ccccc1)NC(=O)CCCn1nc(-c2ccc3oc(N)nc3c2)c2c(N)ncnc21 (centres undefined)	8.22
Nc1nc2cc(-c3nn(CCCC(=O)OCCCCCOc4no[n+]([O-])c4S(=O)(=O)c4ccccc4)c4ncnc(N)c34)ccc2o1	8.02
Nc1nc2cc(-c3nn(CCCC(=O)OCCO[N+](=O)[O-])c4ncnc(N)c34)ccc2o1	8.02
Nc1nc2cc(-c3nn(CCCC(=O)OCCCO[N+](=O)[O-])c4ncnc(N)c34)ccc2o1	8.01
Nc1nc2cc(-c3nn(CCCC(=O)NCCOc4no[n+]([O-])c4S(=O)(=O)c4ccccc4)c4ncnc(N)c34)ccc2o1	8.10

[1] Nc1nc2cc(-c3nn(CCCC(=O)OCCCOc4no[n+]([O-])c4S(=O)(=O)c4ccccc4)c4ncnc(N)c34)ccc2o1
[2] Nc1nc2cc(-c3nn(CCCC(=O)OCc4cccc(OCc5c(-c6ccccc6)no[n+]5[O-])c4)c4ncnc(N)c34)ccc2o1
[3] Nc1nc2cc(-c3nn(CCCC(=O)OCCCCCCO[N+](=O)[O-])c4ncnc(N)c34)ccc2o1
[4] Nc1nc2cc(-c3nn(CCCC(=O)OCCCCCCOc4no[n+]([O-])c4S(=O)(=O)c4ccccc4)c4ncnc(N)c34)ccc2o1
*Q* Hello, I need these entries ordered by pIC50, highest reading first. Thanks! Please list the labels according to the requested order.
*A* 1, 4, 3, 2

###

tested on: HepG2; experiment: Antiproliferative activity against human HepG2 cells assessed as inhibition of cell growth incubated for 70 hrs by CCK-8 assay; format: functional, cell-based; conditions: HepG2, 70 h
experimental_readout: IC50 (nM)

smiles_input	assayed_system	readout_number
CC(C)n1nc(-c2ccc3oc(N)nc3c2)c2c(N)ncnc21	HepG2	1730
Nc1nc2cc(-c3nn(CCCC(=O)OCCCOc4no[n+]([O-])c4S(=O)(=O)c4ccccc4)c4ncnc(N)c34)ccc2o1	HepG2	1320
Nc1nc2cc(-c3nn(CCCC(=O)OCCOCCOc4no[n+]([O-])c4S(=O)(=O)c4ccccc4)c4ncnc(N)c34)ccc2o1	HepG2	1430

###

test: Cytotoxicity against HUVEC assessed as inhibition of cell growth incubated for 70 hrs by CCK-8 assay; type: toxicity, cell-based; details: human, HUVEC cells
compounds and their reported IC50 at 70 h

compound	IC50 at 70 h
Nc1nc2cc(-c3nn(CCCC(=O)OCC#CCOc4no[n+]([O-])c4S(=O)(=O)c4ccccc4)c4ncnc(N)c34)ccc2o1	> 10 µM
CC(COc1no[n+]([O-])c1S(=O)(=O)c1ccccc1)NC(=O)CCCn1nc(-c2ccc3oc(N)nc3c2)c2c(N)ncnc21 (stereo not drawn)	9.59 µM

*Q* For "Nc1nc2cc(-c3nn(CCCC(=O)OCCOCCOc4no[n+]([O-])c4S(=O)(=O)c4ccccc4)c4ncnc(N)c34)ccc2o1" , what is its reported IC50 at 70 h?
*A* > 10 µM

*Q* Endpoint output: IC50 at 70 h of "CC(C)n1nc(-c2ccc3oc(N)nc3c2)c2c(N)ncnc21" . Value?
*A* > 10 µM

*Q* // returns reported IC50 at 70 h for input "Nc1nc2cc(-c3nn(CCCC(=O)OCc4c(-c5ccccc5)no[n+]4[O-])c4ncnc(N)c34)ccc2o1"
*A* > 10 µM

*Q* For the compound "Nc1nc2cc(-c3nn(CCCC(=O)OCCCCOc4no[n+]([O-])c4S(=O)(=O)c4ccccc4)c4ncnc(N)c34)ccc2o1" , what IC50 at 70 h is on record?
*A* > 10 µM

*Q* May I ask what IC50 at 70 h has been recorded for "Nc1nc2cc(-c3nn(CCCC(=O)OCCCCCOc4no[n+]([O-])c4S(=O)(=O)c4ccccc4)c4ncnc(N)c34)ccc2o1" ?
*A* > 10 µM

###

test system: HepG2; assay: Antiproliferative activity against human HepG2 cells assessed as inhibition of cell growth incubated for 70 hrs by CCK-8 assay; type: functional, cell-based; conditions: HepG2, 70 h
pIC50: −log10 of the molar value.
experimental_readout: pIC50

Below: 3 compounds and their reported pIC50.
smiles_input	pIC50
Nc1nc2cc(-c3nn(CCCC(=O)OCCCCOc4no[n+]([O-])c4S(=O)(=O)c4ccccc4)c4ncnc(N)c34)ccc2o1	5.83
Nc1nc2cc(-c3nn(CCCC(=O)OCC#CCOc4no[n+]([O-])c4S(=O)(=O)c4ccccc4)c4ncnc(N)c34)ccc2o1	6.62
Nc1nc2cc(-c3nn(CCCC(=O)OCCCCCOc4no[n+]([O-])c4S(=O)(=O)c4ccccc4)c4ncnc(N)c34)ccc2o1	5.84

[P] Nc1nc2cc(-c3nn(CCCC(=O)NCCCOc4no[n+]([O-])c4S(=O)(=O)c4ccccc4)c4ncnc(N)c34)ccc2o1
[Q] Nc1nc2cc(-c3nn(CCCC(=O)OCCOc4no[n+]([O-])c4S(=O)(=O)c4ccccc4)c4ncnc(N)c34)ccc2o1
*Q* Could you point out whether the larger pIC50 belongs to P or to Q ? Mark your answer with the label of the selected entry.
*A* Q

###

experiment: Cytotoxicity against HUVEC assessed as inhibition of cell growth incubated for 70 hrs by CCK-8 assay; type: toxicity, cell-based; settings: human, HUVEC cells
experimental_readout: IC50 at 70 h

These solved cases illustrate the format of a correct answer.
smiles_input	IC50 at 70 h
Nc1nc2cc(-c3nn(CCCC(=O)OCCO[N+](=O)[O-])c4ncnc(N)c34)ccc2o1	> 10 µM
Nc1nc2cc(-c3nn(CCCC(=O)OCCOc4no[n+]([O-])c4S(=O)(=O)c4ccccc4)c4ncnc(N)c34)ccc2o1	8.94 µM
Nc1nc2cc(-c3nn(CCCC(=O)OCCCO[N+](=O)[O-])c4ncnc(N)c34)ccc2o1	> 10 µM
Nc1nc2cc(-c3nn(CCCC(=O)NCCCOc4no[n+]([O-])c4S(=O)(=O)c4ccccc4)c4ncnc(N)c34)ccc2o1	> 10 µM
Nc1nc2cc(-c3nn(CCCC(=O)NCCOc4no[n+]([O-])c4S(=O)(=O)c4ccccc4)c4ncnc(N)c34)ccc2o1	> 10 µM

// below: IC50 at 70 h requested for another molecule
*Q* Record request: IC50 at 70 h value, item "Nc1nc2cc(-c3nn(CCCC(=O)OCCCOc4no[n+]([O-])c4S(=O)(=O)c4ccccc4)c4ncnc(N)c34)ccc2o1"
*A* 9.37 µM
